Molecular target: human TLR9 (Homo sapiens, UniProt Q9NR96)
Sequence (Q9NR96 26-1032): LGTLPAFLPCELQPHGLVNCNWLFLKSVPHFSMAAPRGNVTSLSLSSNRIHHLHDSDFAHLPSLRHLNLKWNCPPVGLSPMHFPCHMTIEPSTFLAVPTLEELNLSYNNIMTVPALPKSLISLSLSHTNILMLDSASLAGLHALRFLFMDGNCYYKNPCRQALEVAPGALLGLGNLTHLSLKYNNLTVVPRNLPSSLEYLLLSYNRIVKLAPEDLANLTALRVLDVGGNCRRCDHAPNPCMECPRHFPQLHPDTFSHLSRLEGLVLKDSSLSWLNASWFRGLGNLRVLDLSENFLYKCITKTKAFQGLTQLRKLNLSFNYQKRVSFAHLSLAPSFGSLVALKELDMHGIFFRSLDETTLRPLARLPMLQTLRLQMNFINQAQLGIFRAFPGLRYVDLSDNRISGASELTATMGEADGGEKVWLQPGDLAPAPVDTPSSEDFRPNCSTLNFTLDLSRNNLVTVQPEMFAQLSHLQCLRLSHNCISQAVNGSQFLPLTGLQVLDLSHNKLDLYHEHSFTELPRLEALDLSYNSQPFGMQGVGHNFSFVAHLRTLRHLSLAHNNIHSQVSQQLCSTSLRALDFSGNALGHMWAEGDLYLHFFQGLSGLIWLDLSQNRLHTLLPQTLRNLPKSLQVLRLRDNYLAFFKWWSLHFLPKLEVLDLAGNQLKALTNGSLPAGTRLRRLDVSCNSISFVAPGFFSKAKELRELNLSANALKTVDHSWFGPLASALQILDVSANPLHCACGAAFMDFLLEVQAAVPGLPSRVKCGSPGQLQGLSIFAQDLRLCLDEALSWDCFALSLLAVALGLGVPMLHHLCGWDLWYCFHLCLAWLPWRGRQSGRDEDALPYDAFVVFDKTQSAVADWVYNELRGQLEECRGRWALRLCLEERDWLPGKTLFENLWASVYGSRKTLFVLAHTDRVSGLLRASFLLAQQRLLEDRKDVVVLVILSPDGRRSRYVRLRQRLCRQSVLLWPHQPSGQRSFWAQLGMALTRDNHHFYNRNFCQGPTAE
Experiment: TLR9 inhibition reporter assay (HEK-Blue cells, SEAP reporter, ODN2006 stimulation)
Conditions: HEK-Blue cells overexpressing human TLR9, SEAP reporter, ODN2006 5 nM
pIC50: −log10 of the molar value.
PARAMETER: pIC50

compound="Cc1cc(-c2[nH]nc(-c3ccc(N(C)C)cc3)c2C(C)C)cn2ncnc12 [Example 243]" parameter=pIC50 numeric_result=4.53

[1] Cc1cc(-c2[nH]nc(-c3ccc(N)nc3)c2C(C)C)cn2ncnc12 [Example 227]
[2] Cc1cc(-c2[nH]nc(C(=O)NCC3CNC3)c2C(C)C)cn2ncnc12 [Example 49]
Given the listed records, identify the one among 1 and 2 with higher pIC50. // respond with label for picked entry
2

[P] CCC(CC)CN[C@H]1CC[C@@H](NC(=O)c2n[nH]c(-c3cc(C)c4ncnn4c3)c2C(C)C)CC1 [Example 101]
[Q] Cc1cc(-c2[nH]nc(C(=O)NC3CCN(CC(F)(F)F)CC3)c2C(C)C)cn2ncnc12 [Example 173]
Given the listed records, identify the one among P and Q with higher pIC50. // respond with label for picked entry
P
(P: 5.32, Q: 5.11)

[1] Cc1cc(-c2[nH]nc(C(=O)NC[C@H]3CC[C@H](N)CC3)c2C(C)C)cn2ncnc12 [Example 47]
[2] CNC(=O)CN1CCC(c2n[nH]c(-c3cc(C)c4ncnn4c3)c2C(C)C)CC1 [Example 211]
[3] COc1cc(-c2[nH]nc(-c3ccc(C4CCN(CC5CCOCC5)CC4)cn3)c2C(C)C)cn2ncnc12 [Example 375]
Your job: order these 3 records by pIC50, ascending. Your answer should be the labels, listed in the requested order.
3, 2, 1
(3: 4.45, 2: 4.85, 1: 5.16)

[A] Cc1cc(-c2[nH]nc(C(=O)NCC3CN(C4COC4)CCO3)c2C(C)C)cn2ncnc12 (stereo not drawn) [Example 142]
[B] COc1cc(-c2[nH]nc(C(=O)NC3CCN(CC4CCOCC4)CC3)c2CC(F)(F)F)cn2ncnc12 [Example 197]
[C] Cc1cc(-c2[nH]nc(C3CCN(C(C)C)CC3)c2C(C)C)cn2ncnc12 [compound 207]
Your job: order these 3 records by pIC50, ascending. Your answer should be the labels, listed in the requested order.
C, B, A

[a] Cc1cc(-c2[nH]nc(-c3ccc(N(C)C)nc3)c2C(C)C)cn2ncnc12 [Example 237]
[b] CCC(CC)N1CCC(c2cnc(-c3n[nH]c(-c4cc(OC)c5ncnn5c4)c3C(C)C)cn2)CC1 [Example 386]
[c] Cc1cc(-c2[nH]nc(C(=O)N[C@@H]3CCCN(C(C)C)C3)c2C(C)C)cn2ncnc12 [Example 161]
[d] Cc1cc(-c2[nH]nc(C(=O)NC3CNC3)c2C(C)C)cn2ncnc12 [Example 58]
# sort list by recorded pIC50, greatest to least Your answer should be the labels, listed in the requested order.
a, b, c, d
